# Test system: Saccharomyces cerevisiae;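 note: PSI is a weighted mean of sequencing reads over stability bins, variants kept only with over 10 reads, mCherry proximal and sfGFP distal, peptide attached via GGGS linker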
# method_description: protein stability index of tFT-peptide fusion (C-terminal peptide) (PSI (0-1 scale)); higher = more stable (slower turnover)
# measurement_conditions: genetic background: wild type; temperature: 30 C
Listing: protein stability index of selected sequences
I'd appreciate a reply containing only the number, no unit.

Solved cases below.
Please provide the recorded protein stability index for TPTPPRPPFRSP , tested on Saccharomyces cerevisiae. 0.709

Input IVFRLGRFCGRV 0.709

Input APPPREAATSIA 0.699

Input HRTSVRIPIPPI 0.683

Input PSPSGRGLAIAP 0.688

Next:
Please provide the recorded protein stability index for LPAISSPIPPSL , tested on Saccharomyces cerevisiae. 0.701

Input SSTGRGRGCQEM 0.684

Input HHCGGRVLGAGG 0.707

Input SYVYETERNEST 0.715
